Measured values drawn from ChEMBL document CHEMBL3739395 for this set.

experiment summary: Fraction unbound in rat brain
Assay type: ADME, tissue-based
measured property: fraction unbound

[[record]]
smiles_entry = "COc1ccc(C[C@@H]2CCCN2C(=O)c2nc(C)sc2-c2ccc3c(c2)OCO3)cc1OC"
measured_property = "fraction unbound"
reported = 0.04


---

experiment summary: Intrinsic clearance in human liver microsomes at 1 uM
Assay type: ADME
assay conditions: read-out: CLH
measured property: microsomal CLint at 1 µM (µL/min/mg)

[[record]]
molecule = "COc1ccc(-c2sc(C)nc2C(=O)N2CCC[C@H]2Cc2ccc(OC)c(OC)c2)cc1"
display_unit = "µL/min/mg"
result_modifier = "="
reported = 210

[[record]]
molecule = "Cc1cccc(-c2sc(C)nc2C(=O)N2CCC[C@H]2Cc2ccc(C)c(Cl)c2)c1"
display_unit = "µL/min/mg"
result_modifier = ">"
reported = 1250

[[record]]
molecule = "COc1ccc(C[C@@H]2CCCN2C(=O)c2nc(C)sc2-c2cccc(C)c2)cc1Cl"
display_unit = "µL/min/mg"
result_modifier = ">"
reported = 1250

[[record]]
molecule = "COc1ccc(CC2CCCCN2C(=O)c2cc(C)ccc2-n2nccn2)cc1OC (racemic)"
display_unit = "µL/min/mg"
result_modifier = "="
reported = 616

[[record]]
molecule = "COc1ccc(C[C@@H]2CCCN2C(=O)c2nc(C)sc2-c2cccc(C)c2)cc1OC"
display_unit = "µL/min/mg"
result_modifier = "="
reported = 338

[[record]]
molecule = "CCn1cc(C(=O)N2CCc3ccsc3C2Cc2ccc(OC)c(OC)c2)c2ccccc21 (racemic)"
display_unit = "µL/min/mg"
result_modifier = ">"
reported = 1250

[[record]]
molecule = "COc1cccc(CCC2CCCCN2C(=O)c2cc(C)ccc2-n2nccn2)c1 (racemic)"
display_unit = "µL/min/mg"
result_modifier = "="
reported = 1170

[[record]]
molecule = "COc1cc(C[C@@H]2CCCN2C(=O)c2nc(C)sc2-c2cccc(C)c2)cc(OC)c1"
display_unit = "µL/min/mg"
result_modifier = "="
reported = 798

[[record]]
molecule = "COc1ccc(C[C@@H]2CCCN2C(=O)c2ccccc2-c2nc(C)no2)cc1OC"
display_unit = "µL/min/mg"
result_modifier = "="
reported = 129

[[record]]
molecule = "COc1ccc(C[C@@H]2CCCN2C(=O)c2cc(C)ccc2-n2nccn2)cc1OC"
display_unit = "µL/min/mg"
result_modifier = "="
reported = 356

[[record]]
molecule = "Cc1cccc(-c2sc(C)nc2C(=O)N2CCC[C@H]2Cc2ccc3c(c2)OCO3)c1"
display_unit = "µL/min/mg"
result_modifier = "="
reported = 124

[[record]]
molecule = "COc1ccc(C[C@@H]2CCCN2C(=O)c2ccccc2-n2nccn2)cc1OC"
display_unit = "µL/min/mg"
result_modifier = "="
reported = 104

[[record]]
molecule = "Cc1cccc(-c2sc(C)nc2C(=O)N2CCC[C@H]2Cc2ccc3c(c2)OCCO3)c1"
display_unit = "µL/min/mg"
result_modifier = "="
reported = 1040

[[record]]
molecule = "COc1ccc(C[C@@H]2CCCN2C(=O)c2ccccc2-c2ncccn2)cc1OC"
display_unit = "µL/min/mg"
result_modifier = "="
reported = 102

[[record]]
molecule = "COc1ccc(C[C@@H]2CCCN2C(=O)c2nc(C)ccc2-c2ncccn2)cc1OC"
display_unit = "µL/min/mg"
result_modifier = "="
reported = 17

[[record]]
molecule = "COc1ccc(C[C@@H]2CCCN2C(=O)c2nc(C)sc2-c2ccc3c(c2)CCO3)cc1OC"
display_unit = "µL/min/mg"
result_modifier = "="
reported = 235

[[record]]
molecule = "COc1cccc(C[C@@H]2CCCN2C(=O)c2nc(C)sc2-c2cccc(C)c2)c1Cl"
display_unit = "µL/min/mg"
result_modifier = ">"
reported = 1250

[[record]]
molecule = "COc1ccc(C[C@@H]2CCCN2C(=O)c2nc(C)sc2-c2ccc3c(c2)OCO3)cc1OC"
display_unit = "µL/min/mg"
result_modifier = "="
reported = 197

[[record]]
molecule = "COc1ccc(C[C@@H]2CCCN2C(=O)c2nccnc2-c2cccc(C)c2)cc1OC"
display_unit = "µL/min/mg"
result_modifier = "="
reported = 158

[[record]]
molecule = "COc1ccc(Cl)c(C[C@@H]2CCCN2C(=O)c2nc(C)sc2-c2cccc(C)c2)c1"
display_unit = "µL/min/mg"
result_modifier = "="
reported = 996

[[record]]
molecule = "COc1ccc(C[C@@H]2CCCN2C(=O)c2cc(C)ccc2-n2cccn2)cc1OC"
display_unit = "µL/min/mg"
result_modifier = ">"
reported = 1250

[[record]]
molecule = "COc1cccc(-c2sc(C)nc2C(=O)N2CCC[C@H]2Cc2ccc(OC)c(OC)c2)c1"
display_unit = "µL/min/mg"
result_modifier = "="
reported = 300

[[record]]
molecule = "COc1ccc(C[C@@H]2CCCN2C(=O)c2nc(C)sc2-c2ccc(F)cc2)cc1OC"
display_unit = "µL/min/mg"
result_modifier = "="
reported = 216

[[record]]
molecule = "COc1ccc(C[C@@H]2CCCN2C(=O)c2nc(C)sc2-c2cccc(Cl)c2)cc1OC"
display_unit = "µL/min/mg"
result_modifier = "="
reported = 612

[[record]]
molecule = "COc1ccc(CCC2CCCCN2C(=O)c2cc(C)ccc2-n2nccn2)cc1OC (racemic)"
display_unit = "µL/min/mg"
result_modifier = "="
reported = 817

[[record]]
molecule = "Cc1cccc(-c2sc(C)nc2C(=O)N2CCC[C@H]2Cc2ccc(Cl)c(Cl)c2)c1"
display_unit = "µL/min/mg"
result_modifier = ">"
reported = 1250


---

experiment summary: Drug uptake in Wistar rat cerebrospinal fluid at 100 mg/kg, po measured 3 hrs post dose
Assay type: ADME, organism-based
assay conditions: read-out: Drug uptake
measured property: log10(concentration at 3 h) (log10 of the value in ng/mL)

[[record]]
smiles_entry = "COc1ccc(C[C@@H]2CCCN2C(=O)c2nc(C)sc2-c2cccc(C)c2)cc1OC"
measured_property = "log10(concentration at 3 h)"
reported = 0.78

[[record]]
smiles_entry = "COc1ccc(C[C@@H]2CCCN2C(=O)c2ccccc2-n2nccn2)cc1OC"
measured_property = "log10(concentration at 3 h)"
reported = 1.08

[[record]]
smiles_entry = "COc1ccc(C[C@@H]2CCCN2C(=O)c2ccccc2-c2ncccn2)cc1OC"
measured_property = "log10(concentration at 3 h)"
reported = 2.05

[[record]]
smiles_entry = "COc1ccc(C[C@@H]2CCCN2C(=O)c2nccnc2-c2cccc(C)c2)cc1OC"
measured_property = "log10(concentration at 3 h)"
reported = 1.34

[[record]]
smiles_entry = "COc1ccc(C[C@@H]2CCCN2C(=O)c2nc(C)sc2-c2ccc3c(c2)OCO3)cc1OC"
measured_property = "log10(concentration at 3 h)"
reported = 2.12


---

experiment summary: Ratio of drug level in brain to plasma in Wistar rat at 100 mg/kg, po measured 3 hrs post dose
Assay type: ADME, organism-based
assay conditions: brain and plasma, read-out: BPR
Reported Kp at 3 h is given for each of the following compounds.
measured property: Kp at 3 h

[[record]]
smiles_entry = "COc1ccc(C[C@@H]2CCCN2C(=O)c2ccccc2-n2nccn2)cc1OC"
reported = 0.39

[[record]]
smiles_entry = "COc1ccc(C[C@@H]2CCCN2C(=O)c2ccccc2-c2ncccn2)cc1OC"
reported = 0.18

[[record]]
smiles_entry = "COc1ccc(C[C@@H]2CCCN2C(=O)c2nc(C)sc2-c2cccc(C)c2)cc1OC"
reported = 0.97

[[record]]
smiles_entry = "COc1ccc(C[C@@H]2CCCN2C(=O)c2nccnc2-c2cccc(C)c2)cc1OC"
reported = 0.4


---

experiment summary: Ratio of drug level in brain to plasma of rat
Type: ADME
assay conditions: brain and plasma, read-out: BPR
measured property: Kp

[[record]]
smiles_entry = "COc1ccc(C[C@@H]2CCCN2C(=O)c2nc(C)sc2-c2ccc3c(c2)OCO3)cc1OC"
reported = 0.68


---

system under test: Orexin receptor type 2 (Homo sapiens)
Sequence (O43614 whole entry): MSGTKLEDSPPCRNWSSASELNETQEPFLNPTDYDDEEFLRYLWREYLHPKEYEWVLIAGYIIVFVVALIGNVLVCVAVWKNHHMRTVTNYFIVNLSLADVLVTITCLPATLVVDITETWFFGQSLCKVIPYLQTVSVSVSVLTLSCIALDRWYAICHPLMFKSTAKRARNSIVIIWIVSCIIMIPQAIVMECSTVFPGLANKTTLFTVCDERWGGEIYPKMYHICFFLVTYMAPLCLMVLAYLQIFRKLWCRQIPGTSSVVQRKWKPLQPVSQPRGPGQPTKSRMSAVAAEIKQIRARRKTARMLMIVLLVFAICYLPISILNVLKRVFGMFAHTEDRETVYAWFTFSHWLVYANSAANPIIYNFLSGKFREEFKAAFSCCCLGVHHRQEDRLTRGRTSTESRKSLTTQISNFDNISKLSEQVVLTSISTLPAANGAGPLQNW
experiment summary: Inhibition of human orexin-2 receptor expressed in CHO cells assessed as calcium release preincubated for 120 mins followed by addition of orexin-A by fluo-4 AM based-FLIPR analysis
pIC50: −log10 of the molar value.
Parameter threshold = 8. Response is class 1 when pIC50 meets or exceeds it, else class 0.

[[record]]
molecule = "COc1ccc(C[C@@H]2CCCN2C(=O)c2cc(C)ccc2-n2cccn2)cc1OC"
system_under_test = "Orexin receptor type 2 (Homo sapiens)"
discrete_label = "class 0"

[[record]]
molecule = "COc1ccc(CC2CCCCN2C(=O)c2cc(C)ccc2-n2nccn2)cc1OC (racemic)"
system_under_test = "Orexin receptor type 2 (Homo sapiens)"
discrete_label = "class 1"

[[record]]
molecule = "Cc1cccc(-c2sc(C)nc2C(=O)N2CCC[C@H]2Cc2ccc(Cl)c(Cl)c2)c1"
system_under_test = "Orexin receptor type 2 (Homo sapiens)"
discrete_label = "class 0"

[[record]]
molecule = "COc1ccc(C[C@@H]2CCCN2C(=O)c2ccccc2-c2ncccn2)cc1OC"
system_under_test = "Orexin receptor type 2 (Homo sapiens)"
discrete_label = "class 1"

[[record]]
molecule = "COc1ccc(C[C@@H]2CCCN2C(=O)c2nc(C)sc2-c2cccc(C)c2)cc1Cl"
system_under_test = "Orexin receptor type 2 (Homo sapiens)"
discrete_label = "class 1"

[[record]]
molecule = "COc1ccc(C[C@@H]2CCCN2C(=O)c2nccnc2-c2cccc(C)c2)cc1OC"
system_under_test = "Orexin receptor type 2 (Homo sapiens)"
discrete_label = "class 1"

[[record]]
molecule = "COc1ccc(Cl)c(C[C@@H]2CCCN2C(=O)c2nc(C)sc2-c2cccc(C)c2)c1"
system_under_test = "Orexin receptor type 2 (Homo sapiens)"
discrete_label = "class 0"

[[record]]
molecule = "Cc1cccc(-c2sc(C)nc2C(=O)N2CCC[C@H]2Cc2ccc3c(c2)OCO3)c1"
system_under_test = "Orexin receptor type 2 (Homo sapiens)"
discrete_label = "class 0"

[[record]]
molecule = "COc1ccc(CC2c3sccc3CCN2C(=O)c2cc(C)ccc2-n2nccn2)cc1OC (racemic)"
system_under_test = "Orexin receptor type 2 (Homo sapiens)"
discrete_label = "class 0"

[[record]]
molecule = "CCn1cc(C(=O)N2CCCCC2Cc2ccc(OC)c(OC)c2)c2ccccc21 (racemic)"
system_under_test = "Orexin receptor type 2 (Homo sapiens)"
discrete_label = "class 0"

[[record]]
molecule = "COc1ccc(C[C@@H]2CCCN2C(=O)c2nc(C)ccc2-c2ncccn2)cc1OC"
system_under_test = "Orexin receptor type 2 (Homo sapiens)"
discrete_label = "class 0"

[[record]]
molecule = "COc1cc(C[C@@H]2CCCN2C(=O)c2nc(C)sc2-c2cccc(C)c2)cc(OC)c1"
system_under_test = "Orexin receptor type 2 (Homo sapiens)"
discrete_label = "class 1"

[[record]]
molecule = "COc1ccc(C[C@@H]2CCCN2C(=O)c2ccccc2-n2nccn2)cc1OC"
system_under_test = "Orexin receptor type 2 (Homo sapiens)"
discrete_label = "class 1"

